method_description: Half life in CD-1 mouse at 30 mg/kg, ip measured for 6 hrs
Assay type: ADME, organism-based
assay_conditions: in vivo

| compound_smiles | half-life |
| --- | --- |
| O=C(NCC(=O)N1CCCC1)Nc1ccc2cnccc2c1 | ~60 min |

* * *

target: 5-hydroxytryptamine receptor 2B (Homo sapiens)
Sequence (P41595 whole entry): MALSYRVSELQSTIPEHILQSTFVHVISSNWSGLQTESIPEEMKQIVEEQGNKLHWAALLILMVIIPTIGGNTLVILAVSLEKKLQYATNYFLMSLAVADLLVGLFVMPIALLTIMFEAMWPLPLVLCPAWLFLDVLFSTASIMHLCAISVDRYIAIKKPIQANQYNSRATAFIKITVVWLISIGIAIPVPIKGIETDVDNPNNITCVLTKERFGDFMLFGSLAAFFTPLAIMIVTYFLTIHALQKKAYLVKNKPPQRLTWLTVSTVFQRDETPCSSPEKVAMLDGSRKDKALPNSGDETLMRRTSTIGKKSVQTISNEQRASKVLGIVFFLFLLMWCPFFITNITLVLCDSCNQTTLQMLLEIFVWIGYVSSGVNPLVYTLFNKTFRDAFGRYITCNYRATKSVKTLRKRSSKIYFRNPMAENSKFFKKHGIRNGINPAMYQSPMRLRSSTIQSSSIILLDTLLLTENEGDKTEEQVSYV

| compound_smiles | Ki, nM |
| --- | --- |
| Cn1ccc2cc3c(cc21)CCN3C(=O)Nc1cccnc1 | 18.5 |

* * *

method_description: Drug concentration in CD-1 mouse plasma at 30 mg/kg, ip measured at 6 hrs post injection
Assay type: ADME, organism-based
test_readout: concentration at 6 h (nM)

| compound_smiles | test_readout | result_number |
| --- | --- | --- |
| O=C(NCC(=O)N1CCCC1)Nc1ccc2cnccc2c1 | concentration at 6 h | 208 |
